Measurement protocol: qHTS assay to identify small molecule agonists of H2AX - cell viability counter screen (AID 1224847);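 further: wild-type CHO-K1 cells; top concentration of the series differs between compounds; on the % scale 0 is the no-effect control and ±100 the full control effect; nearly all actives have a fitted effect of over 30% in size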
Cond: CHO-K1 viability, CellTiter-Glo luminescence, 3 h; series mostly up to 154 µM
Inconclusive results are not listed. The source made the active and inactive calls. The call rests on the fitted dose curve.

Structure notation	activity change, negative = cytotoxicity
CCN1CCN(c2cc(-c3ccc(F)cc3)c3c(n2)CCCCCC3)CC1	-6.38% [at 31.6 µM] (inactive)
C=CC(=C)CC/C=C(\C)CCC=C(C)C	2.41% [at 31.6 µM] (inactive)
O=C=NCc1cccc(CN=C=O)c1	1.36% [at 31.6 µM] (inactive)
C=C/C=C/C=C/CCCCC	-1.43% [at 31.6 µM] (inactive)
S=C(SSSSSSC(=S)N1CCCCC1)N1CCCCC1	-11.5% [at 31.6 µM] (inactive)

###

Assay system: Nuclear receptor ROR-gamma (Homo sapiens) (UniProt P51449)
Measurement protocol: qHTS assay to identify small molecule antagonists of the retinoid-related orphan receptor gamma (ROR-gamma) signaling pathway (AID 1159521; further: nearly all actives have a fitted effect of over 50% in size)
Cond: Tet-on RORgamma CHO cells, RORE-luciferase, 16 h; series mostly up to 92.4 µM
Records with an inconclusive call do not appear. Active and inactive are the calls of the source. Calls come from the whole dose curve; as a rule, active = well fitted inhibition curve with a large enough effect in the repeat runs; inconclusive = weak or mixed curves, or effect the other way; inactive = no such curve, though single readings can be large or run the other way.
Labels: active, inactive

Compound	Class
COc1cccc(OC)c1O	inactive
c1cc(OCC2CO2)cc(OCC2CO2)c1 (stereo not drawn)	active
CCCCCCOc1cc(C)c(O)c(C)c1C	active
Cc1cncc(C)c1	inactive
CN(C)CCN1CCOCC1	inactive
CCCCCCCCCCCCCc1ccccc1	inactive
CCCC(O)C(O)CO (stereo not drawn)	inactive
COC(=O)NCCC[Si](OC)(OC)OC	active
CCCCCCCCCCCCCC[n+]1ccccc1	active
CSc1c(Cl)c(Cl)c(Cl)c(Cl)c1Cl	inactive
O=CC1CC1	inactive
Cc1cnccn1	inactive
CC(C)(C)c1cc(CCC(=O)NCCCCCCNC(=O)CCc2cc(C(C)(C)C)c(O)c(C(C)(C)C)c2)cc(C(C)(C)C)c1O	inactive
Nc1ccc2cc3ccc(N)cc3nc2c1	inactive
CC=O	active
CC(C)(C)c1n[nH]c(=O)n(N)c1=O	inactive
Clc1ccc(C(Cn2ccnc2)OCc2c(Cl)cccc2Cl)c(Cl)c1 (stereo not drawn)	active
CC(C)=CC1CC(C)CCO1 (stereo not drawn)	inactive
O=C1c2c(O)ccc([N+](=O)[O-])c2C(=O)c2c([N+](=O)[O-])ccc(O)c21	active
CC1CCCNC1 (stereo not drawn)	inactive
CC(O)C#CC(C)O (stereo not drawn)	active
CCCCCCCCCC(=O)N(C)C	inactive
OCCCS	inactive
COc1cccc(O)c1	inactive
c1ccc(Sc2ccccc2)cc1	inactive
CC(C)=CCCC(C)CCOC(=O)C(C)C (stereo not drawn)	inactive
Brc1ccccn1	inactive
CC(=O)OC(OC(C)=O)c1ccc([N+](=O)[O-])o1	active
CCOC(=O)CC(C)O (stereo not drawn)	inactive
CCc1cccc(CC)c1N(COC)C(=O)CS(=O)(=O)O	inactive
CN1CCN(C2Cc3ccccc3Sc3ccc(Cl)cc32)CC1 (stereo not drawn)	active
CC1(C)C(=O)N(CO)C(=O)N1CO	inactive
CN(Cc1cc(Br)cc(Br)c1N)C1CCCCC1	inactive

###

Measurement protocol: qHTS assay to identify small molecule antagonists of the thyroid receptor (TR) signaling pathway (AID 743065); further: nearly all actives have a fitted effect of over 55% in size
Cond: GH3.TRE-Luc, T3-stimulated luciferase inhibition, 23.5 h; series mostly up to 70.3 µM
Source text: U.S. Tox21 Program National Center for Advancing Translational Sciences [NCATS] NIH Chemical Genomics Center [NCGC] U.S. Environmental Protection Agency [EPA] National Institutes of Environmental Health Sciences [NIEHS] National Toxicology Program [NTP] U.S. Food and Drug Administration [FDA] Tox21 Assay Overview: Thyroid receptor (TR), a nuclear hormone receptor, plays an important role in development, proliferation, differentiation, metabolism, brain function, and cardiovascular system. […]
Results filed as inconclusive are left out. Activity calls are given as the source filed them. Calls come from the whole dose curve; as a rule, active = well fitted inhibition curve with a large enough effect in the repeat runs; inconclusive = weak or mixed curves; inactive = no such curve, though single readings can be large or run the other way.
Labels: active, inactive

Compound	Class
c1cc2c3c(c1)ccc1cccc(c13)C2	inactive
CCCCCCCC/C=C\CCCCCCCC(=O)N(C)CC(=O)O	active
Cc1nc(Nc2ncc(C(=O)Nc3c(C)cccc3Cl)s2)cc(N2CCN(CCO)CC2)n1	active
O=C(NO)c1ccccc1	active
CCN(CC)CCNc1ccc(CO)c2sc3ccccc3c(=O)c12	active
CC(C)N=C(N)/N=C(\N)Nc1ccc(Cl)cc1	active
CCC(C)c1cc([N+](=O)[O-])cc([N+](=O)[O-])c1OC(=O)OC(C)C (configuration not stated)	active
CCCCCCCCCCCCN(CCO)CCO	active
CCCCCCCOC(=O)c1ccc(O)cc1	active
C[n+]1c2cc(N)ccc2cc2ccc(N)cc21 (tested in a mixture with another compound)	active
CC(O)C#CC(C)O (configuration not stated)	active
CCCCOC(=O)C(C)CC (configuration not stated)	inactive
CCNc1nc(NC(C)CC)nc(OC)n1 (configuration not stated)	inactive
Cc1ccc2ccc3cccc4ccc1c2c34	inactive
CNC(=S)NN	active
CCCCCCCC/C=C\CCCCCCCC(=O)OCCOC(=O)CCCCCCC/C=C\CCCCCCCC	inactive
CCCCOc1ccc(C(=O)CCN2CCCCC2)cc1	active
C=CC(=C)CCC=C(C)C	inactive
Cc1cccc(Br)c1	inactive
O=C(Nc1ccc(Cl)c(Cl)c1)c1cc(Cl)cc(Cl)c1O	active
CCC(=O)OCCc1ccccc1	inactive
Nc1cc(Cl)c([N+](=O)[O-])cc1O	inactive
c1cc(OCC2CO2)cc(OCC2CO2)c1 (configuration not stated)	active
c1ccc(Nc2cccc3ccccc23)cc1	active
CC(C(O)c1ccccc1)N(C)CCOC(c1ccccc1)c1ccccc1 (configuration not stated)	active
CC(C)=C1CC[C@@H](C)CC1=O	inactive
O=C1c2c(O)ccc([N+](=O)[O-])c2C(=O)c2c([N+](=O)[O-])ccc(O)c21	active

###

Assay system: Cytochrome P450 2C19 (Homo sapiens)
Measurement protocol: Cytochrome P450 Family 2 Subfamily C Member 19 (CYP2C19) small molecule antagonists: luciferase reporter qHTS assay (AID 1671197); further: nearly all actives have a fitted effect of over 65% in size
Cond: P450-Glo CYP2C19 enzyme, luciferin luminescence, 1 h; series mostly up to 115 µM
Text: National Center for Advancing Translational Sciences [NCATS] U.S. Environmental Protection Agency [EPA] National Institutes of Environmental Health Sciences [NIEHS] National Toxicology Program [NTP] U.S. Food and Drug Administration [FDA] Cytochrome P450 (CYP) enzymes are membrane-bound hemeproteins that play a key role in metabolism of drugs and xenobiotics. […] The luciferin products formed are detected with a luciferin detection reagent, and the amount of light produced is proportional to CYP activity. […]
Inconclusive results are not listed. Activity calls are given as the source filed them. Calls come from the whole dose curve; as a rule, active = well fitted inhibition curve with a large enough effect in the repeat runs; inconclusive = weak or mixed curves; inactive = no such curve, though single readings can be large or run the other way.
Labels: active, inactive

Compound	Class
Nc1ncnc2c1ncn2[C@@H]1O[C@H](COP(=O)(O)O)[C@@H](O)[C@H]1O	inactive
C[Si](C)O[Si](C)C	inactive
CCCSS/C(CCO)=C(\C)N(C=O)Cc1cnc(C)nc1N	inactive
CCC(C)c1ccccc1 (configuration not stated)	inactive
Nc1cc(Cl)c([N+](=O)[O-])cc1O	inactive
N#CSCSc1nc2ccccc2s1	active
CN1CN(C)CN(C)C1	inactive

###

Measurement protocol: qHTS assay to identify small molecule agonists of the endoplasmic reticulum stress response signaling pathway - cell viability counter screen (AID 1159517); further: nearly all actives have a fitted effect of over 50% in size
Cond: ESRE-bla HeLa viability, CellTiter-Glo luminescence, 5 h; series mostly up to 61 µM
Inconclusive results are not listed. Activity calls are given as the source filed them. The call rests on the fitted dose curve.
Labels: active, inactive

Compound	Class
Cc1cccc(C)c1NC(=O)CN1CCN(CCCC(c2ccc(F)cc2)c2ccc(F)cc2)CC1	inactive
NC(=O)c1ccccc1N	inactive
CCCCC(CC)COC(=O)c1ccc(O)cc1 (stereo unspecified)	active
O=C1NC2CCCCN2C12CCN(CCCN1c3ccccc3CCc3ccc(Cl)cc31)CC2 (stereo unspecified)	inactive
C[n+]1c2cc(N)ccc2cc2ccc(N)cc21 (tested in a mixture with another compound)	inactive
Cc1ccc(CCn2c3c(c4cc(Cl)ccc42)CN(C)CC3)cn1	inactive
O=C(Nc1ccc(Cl)cc1)Nc1ccc(Cl)c(C(F)(F)F)c1	active
c1cc(OCC2CO2)cc(OCC2CO2)c1 (stereo unspecified)	inactive
CCCCCCCC/C=C\CCCCCCCC(=O)N(C)CC(=O)O	active
CC1=C(/C=C/C(C)=C/C=C/C(C)=C\C=O)C(C)(C)CCC1	active
CCCCCCCCCCCCCC[n+]1ccccc1	active

###

Measurement protocol: qHTS assay to test for compound auto fluorescence at 590 nm (red) in HEK293 cells (AID 720679); further: on the % scale 0 is the no-effect control and ±100 the full control effect
Cond: red autofluorescence 540/590 nm; series mostly up to 91.3 µM
Activity calls are given as the source filed them. Calls come from the whole dose curve; as a rule, active = well fitted curve in the direction sought with a large enough effect in the repeat runs; inconclusive = weak or mixed curves; inactive = flat fitted curve, though single readings scatter.

Compound	fluorescence, % of fluorescent control
O=Nc1ccc(NO)cc1	inactive
COc1cc(C(C)C)c2c(c1)S(=O)(=O)N(COc1cc(=O)n3cccc(OCCN4CCCCC4)c3n1)C2=O	0.266% [at 18.6 µM] (inactive)
CCCOc1sc(C(=O)N2CCC(c3cc(CN)ccc3F)CC2)c(C)c1Br	inactive
C/C=C/C(=O)Oc1c(CCCCCC(C)C)cc([N+](=O)[O-])cc1[N+](=O)[O-]	inactive
CCCCC(CC)COC(=O)c1ccc(O)cc1 (configuration not stated)	inactive
CCOC(=O)N1CCC(=C2c3ccc(Cl)cc3CCc3cccnc32)CC1	inactive
Brc1ccccc1-c1ccccc1	inactive
CCN(CC)CCOC(=O)C1(C2CCCCC2)CCCCC1	inactive
CCO[Si](CCCSSSSCCC[Si](OCC)(OCC)OCC)(OCC)OCC	inactive
C1CC(COCC2CO2)CCC1COCC1CO1 (configuration not stated)	inactive
Cn1cnc2ncnc(N)c21	inactive
S=P(N1CC1)(N1CC1)N1CC1	inactive
